EC50 values for the binders below.
Biological target: T1, biotin-labeled human PD-1 Fc protein (human, biotin-labeled (site not stated))
T1 construct: also called PD-1-Fc-biotin
T1 sequence (chain, as listed by the source limits assumed): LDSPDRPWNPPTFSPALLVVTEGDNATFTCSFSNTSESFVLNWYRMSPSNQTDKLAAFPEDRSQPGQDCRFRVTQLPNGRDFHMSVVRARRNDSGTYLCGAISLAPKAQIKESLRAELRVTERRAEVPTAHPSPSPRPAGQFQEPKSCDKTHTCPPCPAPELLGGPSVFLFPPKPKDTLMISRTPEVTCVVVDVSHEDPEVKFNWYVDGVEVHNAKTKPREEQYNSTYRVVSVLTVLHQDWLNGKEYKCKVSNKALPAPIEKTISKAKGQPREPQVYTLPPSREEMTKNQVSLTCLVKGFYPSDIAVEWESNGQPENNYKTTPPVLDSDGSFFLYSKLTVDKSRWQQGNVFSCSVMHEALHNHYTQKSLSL
Assay: capture ELISA, antibody captured on plate, biotin-labeled human PD-1 Fc in solution
Protocol: Plates were washed 4 times with wash buffer (PBS+0.05% Tween-20, PBST) and then blocked with 200 μl/well blocking buffer (5% w/v non-fatty milk in PBST) for 2 hours at 37° C. […] After a final wash, plates were incubated with 100 μl/well ELISA substrate TMB (Innoreagents). The reaction was stopped in 15 minutes at 25° C. with 50 μl/well 1M H₂SO₄, and the absorbance was read at 450 nm. Data were analyzed using Graphpad Prism software and EC₅₀ values were reported.
Value expressed in ng/mL; do not type the unit.

See these solved cases before continuing.
>  <Binder>
chimeric D2H3 antibody (antibody, human IgG1, kappa, V domains shown, Mouse variable domains cloned in frame to human IgG1 and kappa constant regions; also called chD2H3) VH: EVQLQQSGTVLARPGASVKMSCKSSGYTFTNYWMHWVKQRPGQGLEWIGAIFPRNSETNYNQKFKAKAKLTAVTSASTAYMEVSSLTSEDSAVYFCTRNRYGLDYWGQGTSVTVSS VL: DIVLTQSPGFLAVSLGQRATISCRASESVSLHGTRLMHWYHQKPGQPPKLLISLGSNLESGVPARFSGSGSETDFTLNIHPVEEEDAATYFCQQSIEDPWTFGGGTKLEIKR

>  <Assay result>
0.31

$$$$
>  <Binder>
huD2H3-V14 (antibody, human IgG1, kappa, V domains shown, Humanized D2H3, human IgG1/kappa) VH: EVQLVQSGAEVKKPGSSVKVSCKASGYTFTNYWMHWVRQAPGQGLEWMGAIFPRNSETNYNQKFKARVTITADESTSTAYMELSSLRSEDTAVYYCTRNRYGLDYWGQGTLVTVSS VL: DIVMTQSPDSLAVSLGERATINCRASESVSLHGTRLMHWYQQKPGQPPKLLIYLGSNLESGVPDRFSGSGSGTDFTLTISSLQAEDVAVYYCQQSIEDPWTFGQGTKLEIKR

>  <Assay result>
0.531

$$$$

Challenge: Report EC50 for Nivolumab (OPDIVO®) (antibody, V domains shown) VH: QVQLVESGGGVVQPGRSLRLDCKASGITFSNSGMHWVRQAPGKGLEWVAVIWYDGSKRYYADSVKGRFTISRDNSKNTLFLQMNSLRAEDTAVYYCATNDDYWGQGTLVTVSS VL: EIVLTQSPATLSLSPGERATLSCRASQSVSSYLAWYQQKPGQAPRLLIYDASNRATGIPARFSGSGSGTDFTLTISSLEPEDFAVYYCQQSSNWPRTFGQGTKVEIK please.
Response given: 1.37
